FYI, the data here is from ChEMBL document CHEMBL5244267.

Test: AUC (0 to infinity) in CD1 mouse at 10 mg/kg, iv administered as single dose by UPLC analysis
Assay type: ADME, organism-based
Design: dose 10 mg/kg, route iv
Conditions: CD1, mouse, in vivo

# MOL SMILES, UNITS SYMBOL, AUC(0-inf)
data = [
    ("O=C(/C=C/c1ccc2c(c1)C(=O)CC1(CCN(Cc3ccc(F)cc3)CC1)O2)NO", "ng·h/mL", 1490),
]

---

System: Plasmodium falciparum
Assay: Antiplasmodial activity against chloroquine-resistant Plasmodium falciparum Dd2 in HepG2 cells
Assay type: functional, organism-based
MEASURED PROPERTY: EC50 (nM)

# COMPOUND, ASSAY SYSTEM, MEASURED PROPERTY, VALUE
rows = [
    ("OC(CN1CCC2(CC1)CC(O)c1ccc3ccccc3c1O2)c1ccc(F)c(F)c1 (stereo unspecified)", "Plasmodium falciparum", "EC50", 350),
]
